tested on: Pseudomonas aeruginosa ATCC 27853; type: cell-based; settings: ATCC 27853
Where a SMILES comes first, the peptide text is derived from it. Bridges are numbered along the chain shown (N, C = ends). [ ]: non-standard residue; d: D form. The star is where a group is joined. dPhe(4-Cl) = N[C@H](Cc1ccc(Cl)cc1)C(=O)O; X2 = CC[C@H](C)CCCCC(=O)*; Octanoyl = CCCCCCCC(=O)*; Dab = NCC[C@H](N)C(=O)O
Observable: MIC P. aeruginosa ATCC 27853 (µg/mL)
Please state the figure in µg/mL; there is no need to write the unit.

Record excerpt, results attached:
* CCCCCCCC(=O)N[C@@H](CCN)C(=O)N[C@H](C(=O)N[C@@H](CCN)C(=O)N[C@H]1CCNC(=O)[C@H]([C@@H](C)O)NC(=O)[C@H](CCN)NC(=O)[C@H](CCN)NC(=O)[C@H]([C@@H](C)O)NC(=O)[C@@H](CC(C)C)NC(=O)[C@H](CCN)NC1=O)[C@@H](C)O [Compound 104] (Octanoyl-[Dab]T[Dab][Dab][Dab][dL]T[Dab][Dab]T; lactam 4-C) | 1
* CC[C@H](C)CCCCC(=O)N[C@@H](CCN)C(=O)N[C@H](C(=O)N[C@@H](CCN)C(=O)N[C@H]1CCNC(=O)[C@H]([C@@H](C)O)NC(=O)[C@H](CCN)NC(=O)[C@H](CCN)NC(=O)[C@H](CC(C)C)NC(=O)[C@@H](Cc2ccc(Cl)cc2)NC(=O)[C@H](CCN)NC1=O)[C@@H](C)O [Compound 16] (X2-[Dab]T[Dab][Dab][Dab][dPhe(4-Cl)]L[Dab][Dab]T; lactam 4-C) | 2

The molecule listed as CCCCCCCC(=O)N[C@@H](CCN)C(=O)N[C@H](C(=O)N[C@H](CO)C(=O)N[C@H]1CCNC(=O)[C@H]([C@@H](C)O)NC(=O)[C@H](CCN)NC(=O)[C@H](CCN)NC(=O)[C@H]([C@@H](C)O)NC(=O)[C@@H](CC(C)C)NC(=O)[C@H](CCN)NC1=O)[C@@H](C)O [Compound 60] (Octanoyl-[Dab]T[dS][Dab][Dab][dL]T[Dab][Dab]T; lactam 4-C) has a reported MIC P. aeruginosa ATCC 27853 of 2

* * *

tested on: Pseudomonas aeruginosa ATCC 27853; format: cell-based; conditions: ATCC 27853
Where a SMILES comes first, the peptide text is derived from it. Bridges are numbered along the chain shown (N, C = ends). [ ]: non-standard residue; d: D form. The star is where a group is joined. dPhe(4-Me) = Cc1ccc(C[C@@H](N)C(=O)O)cc1; Heptanoyl(6-Me) = CC(C)CCCCC(=O)*; X2 = CC[C@H](C)CCCCC(=O)*; Dab = NCC[C@H](N)C(=O)O
Documented MIC P. aeruginosa ATCC 27853 across a set of compounds
Please state the figure in µg/mL; there is no need to write the unit.

- CC[C@H](C)CCCCC(=O)N[C@@H](CCN)C(=O)N[C@H](C(=O)N[C@@H](CCN)C(=O)N[C@H]1CCNC(=O)[C@H]([C@@H](C)O)NC(=O)[C@H](CCN)NC(=O)[C@H](CCN)NC(=O)[C@H](CC(C)C)NC(=O)[C@@H](Cc2ccc(OC)cc2)NC(=O)[C@H](CCN)NC1=O)[C@@H](C)O [Compound 24] (X2-[Dab]T[Dab][Dab][Dab][dY](Me)L[Dab][Dab]T; lactam 4-C): 2
- CC[C@H](C)[C@@H]1NC(=O)[C@@H](CC(C)C)NC(=O)[C@H](CCN)NC(=O)[C@@H](NC(=O)[C@H](CCN)NC(=O)[C@@H](NC(=O)[C@H](CCN)NC(=O)CCCCC(C)C)[C@@H](C)O)CCNC(=O)[C@H]([C@@H](C)O)NC(=O)[C@H](CCN)NC(=O)[C@H](CCN)NC1=O [Compound 75] ({Heptanoyl(6-Me)}-[Dab]T[Dab][Dab][Dab][dL]I[Dab][Dab]T; lactam 4-C): 2

# evaluate next
The compound listed as CC[C@H](C)CCCCC(=O)N[C@@H](CCN)C(=O)N[C@H](C(=O)N[C@@H](CCN)C(=O)N[C@H]1CCNC(=O)[C@H]([C@@H](C)O)NC(=O)[C@H](CCN)NC(=O)[C@H](CCN)NC(=O)[C@H](CC(C)C)NC(=O)[C@@H](Cc2ccc(C)cc2)NC(=O)[C@H](CCN)NC1=O)[C@@H](C)O [Compound 26] (X2-[Dab]T[Dab][Dab][Dab][dPhe(4-Me)]L[Dab][Dab]T; lactam 4-C) has a reported MIC P. aeruginosa ATCC 27853 of 2
